Test system: HOP-62 complex spheroids with HUVEC/MSC, viability
Test: Anticancer human tumor HOP-62 cell line growth inhibition [RAS];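 further: spheroids exposed to agents for seven days before readout; 100% = DMSO vehicle control viability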
Conditions: second compound 0.0949 µM; first compound 0.0316 µM; hits give low values
Measured property: viability, T/C (%)
Report only the number, with the unit % understood.

In: Give the measured viability, T/C for O=C(c1ccc(F)c(F)c1Nc1ccc(I)cc1F)N1CC(O)([C@@H]2CCCCN2)C1 + CCn1c(-c2cc(N3CCN(C)CC3)cnc2C(C)OC)c2c3cc(ccc31)-c1csc(n1)CC(NC(=O)C1CC1C)C(=O)N1CCCC(N1)C(=O)OCC(C)(C)C2
Out: 32.9

In: Quick one: give measured viability, T/C for CCN1CCN(Cc2ccc(Nc3ncc(F)c(-c4cc(F)c5nc(C)n(C(C)C)c5c4)n3)nc2)CC1 + CCn1c(-c2cccnc2C(C)OC)c2c3cc(ccc31)N1CCOC(CC(NC(=O)C(C(C)C)N(C)C(=O)C3(F)CCN(C(=O)C#CC(C)(C)N(C)C)CC3)C(=O)N3CCCC(N3)C(=O)OCC(C)(C)C2)C1
Out: 79.7

In: Assign viability, T/C to the following record: CC(=O)OC12COC1CC(O)C1(C)C(=O)C(O)C3=C(C)C(OC(=O)C(O)C(NC(=O)OC(C)(C)C)c4ccccc4)CC(O)(C(OC(=O)c4ccccc4)C21)C3(C)C (configuration not stated) + CCn1c(-c2cccnc2C(C)OC)c2c3cc(ccc31)N1CCOC(CC(NC(=O)C(C(C)C)N(C)C(=O)C3(F)CCN(C(=O)C#CC(C)(C)N(C)C)CC3)C(=O)N3CCCC(N3)C(=O)OCC(C)(C)C2)C1
Out: 34.2

In: Let me know recorded viability, T/C for C=CC(=O)N1CCN(c2nc(OCC3CCCN3C)nc3c(F)c(-c4nc(N)cc(C)c4C(F)(F)F)c(Cl)cc23)C(C)C1 (configuration not stated) + CCn1c(-c2cc(N3CCN(C)CC3)cnc2C(C)OC)c2c3cc(ccc31)-c1csc(n1)CC(NC(=O)C1CC1C)C(=O)N1CCCC(N1)C(=O)OCC(C)(C)C2 , thanks.
Out: 34

In: Output measured viability, T/C for this item: C=CC(=O)N1CCN(c2nc(OCC3CCCN3C)nc3c(F)c(-c4nc(N)cc(C)c4C(F)(F)F)c(Cl)cc23)C(C)C1 (configuration not stated) + CCn1c(-c2cccnc2C(C)OC)c2c3cc(ccc31)N1CCOC(CC(NC(=O)C(C(C)C)N(C)C(=O)C3(F)CCN(C(=O)C#CC(C)(C)N(C)C)CC3)C(=O)N3CCCC(N3)C(=O)OCC(C)(C)C2)C1
Out: 83.3

In: # return recorded viability, T/C for input C[C@@H](NC(=O)c1ncnc(N)c1Cl)c1ncc(C(=O)Nc2cc(C(F)(F)F)c(Cl)cn2)s1 + CCn1c(-c2cccnc2C(C)OC)c2c3cc(ccc31)N1CCOC(CC(NC(=O)C(C(C)C)N(C)C(=O)C3(F)CCN(C(=O)C#CC(C)(C)N(C)C)CC3)C(=O)N3CCCC(N3)C(=O)OCC(C)(C)C2)C1
Out: 94.7

In: Provide only the value of recorded viability, T/C for CC(C)n1nc(-c2ccc3oc(N)nc3c2)c2c(N)ncnc21 + CCn1c(-c2cc(N3CCN(C)CC3)cnc2C(C)OC)c2c3cc(ccc31)-c1csc(n1)CC(NC(=O)C1CC1C)C(=O)N1CCCC(N1)C(=O)OCC(C)(C)C2
Out: 20.6

###

Tested on: HOP-62 complex spheroids with HUVEC/MSC, viability
Assay: Anticancer human tumor HOP-62 cell line growth inhibition [RAS];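 further: spheroids exposed to agents for seven days before readout; 100% = DMSO vehicle control viability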
Details: second compound 0.1 µM; first compound 0.01 µM; hits give low values
Sorting guide: entries reporting viability, T/C beneath 60% go in the label 1 pile, the rest go in the label 0 pile.

Past entries and their recorded results:
CCN1CCN(Cc2ccc(Nc3ncc(F)c(-c4cc(F)c5nc(C)n(C(C)C)c5c4)n3)nc2)CC1 + C=CC(=O)N1CCN(c2nc(OCC3CCCN3C)nc3c(F)c(-c4nc(N)cc(C)c4C(F)(F)F)c(Cl)cc23)C(C)C1 :: label 1
CC(C)n1nc(-c2ccc3oc(N)nc3c2)c2c(N)ncnc21 + C=CC(=O)N1CCN(c2nc(OCC3CCCN3C)nc3c(F)c(-c4nc(N)cc(C)c4C(F)(F)F)c(Cl)cc23)C(C)C1 :: label 1
C=CC(=O)Nc1cc(Nc2nccc(-c3cn(C)c4ccccc34)n2)c(OC)cc1N(C)CCN(C)C + C=CC(=O)N1CCN(c2nc(OCC3CCCN3C)nc3c(F)c(-c4nc(N)cc(C)c4C(F)(F)F)c(Cl)cc23)C(C)C1 :: label 0
C=CC(=O)N1CCN(c2nc(OCC3CCCN3C)nc3c(F)c(-c4nc(N)cc(C)c4C(F)(F)F)c(Cl)cc23)C(C)C1 (stereo not given) + C#Cc1c(F)ccc2cc(O)cc(-c3ncc4c(N5CC6CCC(C5)N6)nc(OCC56CCCN5CC(F)C6)nc4c3F)c12 :: label 0

In: hey, is viability, T/C for O=C(c1ccc(F)c(F)c1Nc1ccc(I)cc1F)N1CC(O)([C@@H]2CCCCN2)C1 + C=CC(=O)N1CCN(c2nc(OCC3CCCN3C)nc3c(F)c(-c4nc(N)cc(C)c4C(F)(F)F)c(Cl)cc23)C(C)C1 lower than 60% or not?
Out: label 1

###

Tested on: HOP-62 complex spheroids with HUVEC/MSC, viability
Assay: Anticancer human tumor HOP-62 cell line growth inhibition [RAS]; active means viability on the fitted dose curve at most 10% of control; inactive means the rest;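 further: spheroids exposed to agents for seven days before readout; 100% = DMSO vehicle control viability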
Details: second compound 10 µM; first compound 0.316 µM
Response enum: active, inactive

Worked cases, answers included:
CCC(CC)c1cc(NC2CCC(N)C2)n2nccc2n1 (stereo not given) + C#Cc1c(F)ccc2cc(O)cc(-c3ncc4c(N5CC6CCC(C5)N6)nc(OCC56CCCN5CC(F)C6)nc4c3F)c12 :: inactive
CC(Nc1ccc2c(c1)OCCn1cc(N3C(=O)OCC3C(F)F)nc1-2)C(N)=O (stereo not given) + C#Cc1c(F)ccc2cc(O)cc(-c3ncc4c(N5CC6CCC(C5)N6)nc(OCC56CCCN5CC(F)C6)nc4c3F)c12 :: inactive
Nc1ccn(C2OC(CO)C(O)C2(F)F)c(=O)n1 (stereo not given) + C#Cc1c(F)ccc2cc(O)cc(-c3ncc4c(N5CC6CCC(C5)N6)nc(OCC56CCCN5CC(F)C6)nc4c3F)c12 :: active

In: // param item: C=CC(=O)N1CCN(c2nc(OCC3CCCN3C)nc3c(F)c(-c4nc(N)cc(C)c4C(F)(F)F)c(Cl)cc23)C(C)C1 (stereo not given) + C#Cc1c(F)ccc2cc(O)cc(-c3ncc4c(N5CC6CCC(C5)N6)nc(OCC56CCCN5CC(F)C6)nc4c3F)c12 ; yields the recorded call
Out: inactive

In: Name the outcome recorded for CC(C)NCC(C(=O)N1CCN(c2ncnc3c2C(C)CC3O)CC1)c1ccc(Cl)cc1 (stereo not given) + C#Cc1c(F)ccc2cc(O)cc(-c3ncc4c(N5CC6CCC(C5)N6)nc(OCC56CCCN5CC(F)C6)nc4c3F)c12 in the assay.
Out: inactive

###

Test system: HOP-62 complex spheroids with HUVEC/MSC, viability
Experiment: Anticancer human tumor HOP-62 cell line growth inhibition [RAS];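 further: spheroids exposed to agents for seven days before readout; 100% = DMSO vehicle control viability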
Conditions: second compound 10 µM; first compound 0.01 µM; hits give low values
Text: RAS pathway inhibitors in Combinations in Complex Spheroids A high-throughput screen of multi-cell type tumor spheroids was designed to identify active combinations of RAS pathway inhibitors and targeted small molecules. Complex spheroids include a stromal component modeled by human endothelial cells (HUVEC) and fibroblasts modeled by human mesenchymal stem cells (MSCs). […] Compounds. […] If the clinical Cmax for an agent had not been determined, the highest concentration tested was 10 microM. […]
Overview of recorded viability, T/C for various compounds

These recorded examples may help you get a feel for the data.
C=CC(=O)N1CCN(c2nc(OCC3CCCN3C)nc3c(F)c(-c4nc(N)cc(C)c4C(F)(F)F)c(Cl)cc23)C(C)C1 (stereo unspecified) + C#Cc1c(F)ccc2cc(O)cc(-c3ncc4c(N5CC6CCC(C5)N6)nc(OCC56CCCN5CC(F)C6)nc4c3F)c12 :: 49.5%
Nc1ccn(C2OC(CO)C(O)C2(F)F)c(=O)n1 (stereo unspecified) + C#Cc1c(F)ccc2cc(O)cc(-c3ncc4c(N5CC6CCC(C5)N6)nc(OCC56CCCN5CC(F)C6)nc4c3F)c12 :: 12.1%
O=C(c1ccc(F)c(F)c1Nc1ccc(I)cc1F)N1CC(O)([C@@H]2CCCCN2)C1 + C#Cc1c(F)ccc2cc(O)cc(-c3ncc4c(N5CC6CCC(C5)N6)nc(OCC56CCCN5CC(F)C6)nc4c3F)c12 :: 47.9%
C=CC(=O)Nc1cc(Nc2nccc(-c3cn(C)c4ccccc34)n2)c(OC)cc1N(C)CCN(C)C + C#Cc1c(F)ccc2cc(O)cc(-c3ncc4c(N5CC6CCC(C5)N6)nc(OCC56CCCN5CC(F)C6)nc4c3F)c12 :: 45.9%
CCN1CCN(Cc2ccc(Nc3ncc(F)c(-c4cc(F)c5nc(C)n(C(C)C)c5c4)n3)nc2)CC1 + C#Cc1c(F)ccc2cc(O)cc(-c3ncc4c(N5CC6CCC(C5)N6)nc(OCC56CCCN5CC(F)C6)nc4c3F)c12 :: 48.3%

Now for another entry.
In: Please look at this compound and report its viability, T/C: CC(C)n1nc(-c2ccc3oc(N)nc3c2)c2c(N)ncnc21 + C#Cc1c(F)ccc2cc(O)cc(-c3ncc4c(N5CC6CCC(C5)N6)nc(OCC56CCCN5CC(F)C6)nc4c3F)c12
Out: 21.6%
